The reported numbers originate from patent US20240287036A1.

- TEST: Hepatocyte stability assay (Human Hep Clint)
- Format: in vitro ADME
- MEASUREMENT_PARAMETERS: cryopreserved pooled human hepatocytes, 0.5 × 10^6 cells/mL, 1 μM test compound, up to 90 min
VALUE_TYPE: hepatocyte CLint at 1 μM (µL/min/1e6 cells)
Lab book: enter the figure in µL/min/1e6 cells, no units written.

Reference set (4 entries):
In [3]: df
Out[3]:
                                   compound       units_label  observed_measurement
0  Cc1ccnn([C@@H]2CCCN(C(=O)NC[C@H](O)CN3CCc4ccccc4C3)C2)c1=O  µL/min/1e6 cells                  10.8
1  [2H]C1([2H])c2ccccc2CCN1C[C@@H](O)CNC(=O)N1CCC[C@@H](N2CCCCC2=O)C1  µL/min/1e6 cells                   2.5
2  CC1CCC(=O)N([C@@H]2CCCN(C(=O)NC[C@H](O)CN3CCc4ccccc4C3)C2)C1 (some centres unmarked)  µL/min/1e6 cells                   2.5
3  O=C(NC[C@H](O)CN1CCc2ccccc2C1)N1CCC[C@@H](N2CCCC2=O)C1  µL/min/1e6 cells                   1.7

Moving on to the next compound.
Problem: Any idea what its hepatocyte CLint at 1 μM is? The compound is O=C(NC[C@H](O)CN1CCc2ccccc2C1)N1CCC[C@@H](c2ccccc2)C1 [CEx, reference compound]
Result: 54.1

---

- SYSTEM_TESTED: human PRMT5/MEP50 (Homo sapiens)
- Construct: host or cells: HEK293 cells
- Sequence (O14744 whole entry): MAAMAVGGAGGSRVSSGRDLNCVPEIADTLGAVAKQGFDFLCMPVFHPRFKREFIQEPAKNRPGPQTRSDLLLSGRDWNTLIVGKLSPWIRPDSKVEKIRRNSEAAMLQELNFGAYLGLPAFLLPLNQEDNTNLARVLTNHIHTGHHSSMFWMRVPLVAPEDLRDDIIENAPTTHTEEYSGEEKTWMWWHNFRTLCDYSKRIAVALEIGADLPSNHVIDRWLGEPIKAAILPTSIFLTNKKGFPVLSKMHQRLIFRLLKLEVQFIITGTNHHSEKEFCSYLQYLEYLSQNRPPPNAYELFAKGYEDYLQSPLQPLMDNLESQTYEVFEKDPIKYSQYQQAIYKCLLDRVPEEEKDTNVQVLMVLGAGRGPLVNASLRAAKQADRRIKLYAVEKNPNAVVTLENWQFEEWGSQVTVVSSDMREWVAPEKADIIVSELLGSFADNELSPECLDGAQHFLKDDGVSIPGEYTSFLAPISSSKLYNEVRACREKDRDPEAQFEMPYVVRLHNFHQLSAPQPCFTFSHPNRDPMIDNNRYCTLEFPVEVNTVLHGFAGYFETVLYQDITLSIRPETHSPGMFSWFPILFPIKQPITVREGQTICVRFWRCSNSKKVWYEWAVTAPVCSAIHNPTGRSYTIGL
- Sequence (Q9BQA1 whole entry partner): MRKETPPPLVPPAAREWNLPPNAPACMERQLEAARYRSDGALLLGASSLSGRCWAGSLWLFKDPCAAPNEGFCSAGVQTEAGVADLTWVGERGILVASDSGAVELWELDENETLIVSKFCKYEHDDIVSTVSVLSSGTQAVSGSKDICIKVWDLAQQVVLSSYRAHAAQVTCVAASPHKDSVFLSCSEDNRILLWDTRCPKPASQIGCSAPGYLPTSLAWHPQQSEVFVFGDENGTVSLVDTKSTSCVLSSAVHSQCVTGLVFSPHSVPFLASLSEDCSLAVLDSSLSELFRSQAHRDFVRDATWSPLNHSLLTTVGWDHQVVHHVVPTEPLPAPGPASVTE
- TEST: PRMT5 chemiluminescent assay
- Type: biochemical
- MEASUREMENT_PARAMETERS: human PRMT5/MEP50 expressed in HEK293 cells, biotinylated histone peptides, 60 min reaction; read-out: PRMT5 pIC50 (converted)
VALUE_TYPE: IC50

>>> df
                                   molecule  observed_measurement
0  O=C(NC[C@H](O)CN1CCc2ccccc2C1)N1CCC[C@@H](N2CCCC2=O)C1               50.1 nM
1  CC1CCC(=O)N([C@@H]2CCCN(C(=O)NC[C@H](O)CN3CCc4ccccc4C3)C2)C1 (stereo partly drawn)               31.6 nM
2  O=C(NC[C@H](O)CN1CCc2ccccc2C1)N1CCC[C@@H](c2ccccc2)C1 [CEx, reference compound]               12.6 nM
3  O=C(NC[C@H](O)CN1CCc2ccccc2C1)N1CCC[C@@H](N2CCCCC2=O)C1               15.8 nM
4  [2H]C1([2H])CN(C[C@@H](O)CNC(=O)N2CCC[C@@H](N3CCCCC3=O)C2)C([2H])([2H])c2ccccc21                 20 nM
5  [2H]C1([2H])c2ccccc2CCN1C[C@@H](O)CNC(=O)N1CCC[C@@H](N2CCCCC2=O)C1               31.6 nM
6  CC1CCCN([C@@H]2CCCN(C(=O)NC[C@H](O)CN3CCc4ccccc4C3)C2)C1=O (stereo partly drawn)               12.6 nM
7  CN1CCCN([C@@H]2CCCN(C(=O)NC[C@H](O)CN3CCc4ccccc4C3)C2)C1=O               12.6 nM

Problem: Any idea what IC50 was measured for `Cc1ccnn([C@@H]2CCCN(C(=O)NC[C@H](O)CN3CCc4ccccc4C3)C2)c1=O` ?
Result: 7.94 nM

---

Catalogue of molecules with associated hepatocyte CLint at 1 μM
- TEST: Hepatocyte stability assay (Human Hep Clint)
- Assay type: in vitro ADME
- MEASUREMENT_PARAMETERS: cryopreserved pooled human hepatocytes, 0.5 × 10^6 cells/mL, 1 μM test compound, up to 90 min

>>> df
                                   molecule                value_type    observed_measurement
0  CN1CCCN([C@@H]2CCCN(C(=O)NC[C@H](O)CN3CCc4ccccc4C3)C2)C1=O  hepatocyte CLint at 1 μM  < 6.4 µL/min/1e6 cells

Problem: Would you mind telling me what hepatocyte CLint at 1 μM value was observed for `O=C(NC[C@H](O)CN1CCc2ccccc2C1)N1CCC[C@@H](N2CCCCC2=O)C1` ?
Result: < 3 µL/min/1e6 cells

Problem: Follow-up item: CC1CCCN([C@@H]2CCCN(C(=O)NC[C@H](O)CN3CCc4ccccc4C3)C2)C1=O (stereo partly drawn)
Result: < 6 µL/min/1e6 cells
